Test system: SK-MEL-28
Procedure text: NCI tumour cell line growth inhibition, 48 h
Calls of active or inactive are those of the source. Rule as the data show it: active = GI50 up to about 1.1 µM and inactive = higher.
Examples of compounds with documented GI50 follow.

Here's what some known entries look like.
Compound | Val
NC(CCC(=O)NC(CSC(=O)N(O)c1ccccc1)C(=O)NCC(=O)O)C(=O)O (stereo unspecified) | > 1000 µM (inactive)
CC(=O)OI1NC(=O)c2ccccc21 | > 100 µM (inactive)
NCCN1C(=O)CN=C(c2ccc(Cl)cc2)c2cc(Cl)ccc21 | > 100 µM (inactive)

Kindly consider the entry below.
Sample `NC(=S)Nc1nc(=S)[nH]c2[nH]ccc12` — what was its GI50?
> 100 µM (inactive)
